Hello, the source for this data is ChEMBL document CHEMBL1135120, in case you need it.

target-desc: Nitric oxide synthase 1 (Homo sapiens)
Sequence (P29475 whole entry): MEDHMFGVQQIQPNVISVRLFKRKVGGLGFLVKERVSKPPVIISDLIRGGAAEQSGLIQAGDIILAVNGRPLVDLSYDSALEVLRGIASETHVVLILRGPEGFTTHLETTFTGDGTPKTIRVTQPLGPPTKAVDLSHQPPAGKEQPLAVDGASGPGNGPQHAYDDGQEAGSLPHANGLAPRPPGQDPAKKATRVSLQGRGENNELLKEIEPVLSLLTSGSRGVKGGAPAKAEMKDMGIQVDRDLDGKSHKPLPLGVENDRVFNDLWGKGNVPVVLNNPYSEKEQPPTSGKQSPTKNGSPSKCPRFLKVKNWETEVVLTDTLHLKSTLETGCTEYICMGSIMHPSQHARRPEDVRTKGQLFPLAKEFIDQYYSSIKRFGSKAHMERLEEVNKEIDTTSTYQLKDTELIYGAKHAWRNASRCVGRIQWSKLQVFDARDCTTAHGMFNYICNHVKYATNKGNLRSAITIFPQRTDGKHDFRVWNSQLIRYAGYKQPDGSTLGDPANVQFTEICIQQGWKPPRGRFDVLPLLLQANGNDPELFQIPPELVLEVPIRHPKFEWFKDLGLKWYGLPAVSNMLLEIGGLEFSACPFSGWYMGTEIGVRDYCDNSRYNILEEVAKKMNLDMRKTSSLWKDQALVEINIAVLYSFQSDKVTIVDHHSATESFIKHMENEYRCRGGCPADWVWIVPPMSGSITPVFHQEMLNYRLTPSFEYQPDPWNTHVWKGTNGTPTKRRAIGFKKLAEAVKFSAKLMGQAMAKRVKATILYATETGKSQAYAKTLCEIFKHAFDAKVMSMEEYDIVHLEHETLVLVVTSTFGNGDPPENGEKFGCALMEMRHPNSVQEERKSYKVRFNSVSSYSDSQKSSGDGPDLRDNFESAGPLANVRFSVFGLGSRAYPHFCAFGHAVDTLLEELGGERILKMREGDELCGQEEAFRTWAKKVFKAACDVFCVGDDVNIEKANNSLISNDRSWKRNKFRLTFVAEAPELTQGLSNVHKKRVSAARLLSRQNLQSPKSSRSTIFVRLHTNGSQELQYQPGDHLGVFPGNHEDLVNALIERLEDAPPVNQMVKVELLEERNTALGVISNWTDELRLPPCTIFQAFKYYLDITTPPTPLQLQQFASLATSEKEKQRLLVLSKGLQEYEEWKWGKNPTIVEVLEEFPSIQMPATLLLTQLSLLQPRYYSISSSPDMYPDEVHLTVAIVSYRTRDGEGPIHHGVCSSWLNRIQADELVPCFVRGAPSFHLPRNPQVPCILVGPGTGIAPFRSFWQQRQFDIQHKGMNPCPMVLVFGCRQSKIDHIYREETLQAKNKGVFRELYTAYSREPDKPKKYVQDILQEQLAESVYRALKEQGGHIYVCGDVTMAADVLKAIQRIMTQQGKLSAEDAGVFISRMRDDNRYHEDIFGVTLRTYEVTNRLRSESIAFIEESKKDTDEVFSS
test-name: In vitro inhibition concentration was evaluated on the effect of conversion by Nitric oxide synthase of [3H]L-arginine into [3H]L-citrulline
value-kind: IC50 (µM)
Numbers only, in µM.

Asked: Query for Nitric oxide synthase 1 (Homo sapiens): what IC50 does the record show for N=C(Nc1ccccc1)c1cccs1 ?
Given back: 4

---

target-desc: Nitric oxide synthase 1 (Homo sapiens)
test-name: In vitro inhibition concentration was evaluated on the effect of conversion by Nitric Oxide synthase of [3H]L-arginine into [3H]L-citrulline
Answer each item with its documented IC50.
One number for each entry, in µM.

Examples with their reported IC50 follow.
> print(dat)
                                   molecule  value.reported
1  N=C(Nc1ccc(CCNC(=O)CC2CCSS2)cc1)c1cccs1 (stereo not given)            1.15
2  NC(=Nc1ccc(CNC(=O)CCCCC2CCSS2)cc1)c1cccs1 (stereo not given)             2.3
3  NC(=Nc1ccc(NC(=O)CC2CCSS2)cc1)c1cccs1 (stereo not given)             4.4
4  N=C(Nc1ccc(NC(=O)CCCCC2CCSS2)cc1)c1cccs1 (stereo not given)             3.5

Asked: Consider the molecule N=C(Nc1ccc(CCNC(=O)CCCCC2CCSS2)cc1)c1cccs1 (stereo not given) and give its measured IC50.
Given back: 1.04
